Listed below: scaled log2 fold change values for each entry.
B1: library; numbered along this chain (parent)
chain: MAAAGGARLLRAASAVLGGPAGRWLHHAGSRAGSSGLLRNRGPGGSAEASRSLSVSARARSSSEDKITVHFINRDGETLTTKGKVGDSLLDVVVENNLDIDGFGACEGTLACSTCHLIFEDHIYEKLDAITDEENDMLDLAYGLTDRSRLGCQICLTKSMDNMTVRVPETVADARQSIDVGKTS

# Variants of: B1
# method.summary: scaled log2 fold change in cell abundance, elesclomol vs control (0 = silent mean, 1 = nonsense mean) (scaled log2 ratio); higher = higher viability under elesclomol (loss of FDX1 cuproptosis function);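 note: variant abundance is its share of total variant reads in each endpoint sample, from next-generation sequencing of the integrated ORF PCR-amplified out of genomic DNA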
# condition.set: with ABC1 FDX1 KO; elesclomol 5 nM; glucose 10 mM; 14 days
quantity: scaled log2 fold change

variant.id: A141K
quantity: scaled log2 fold change
result: 0.122

variant.id: G33M
quantity: scaled log2 fold change
result: 0.0509

variant.id: S52W
quantity: scaled log2 fold change
result: 0.257

variant.id: A129K
quantity: scaled log2 fold change
result: -0.557

variant.id: T80H
quantity: scaled log2 fold change
result: 0.295

variant.id: S61E
quantity: scaled log2 fold change
result: 0.468

variant.id: A59G
quantity: scaled log2 fold change
result: -0.424

variant.id: A28E
quantity: scaled log2 fold change
result: 0.301

variant.id: F103G
quantity: scaled log2 fold change
result: 1.04

variant.id: C155D
quantity: scaled log2 fold change
result: 0.24

variant.id: L38P
quantity: scaled log2 fold change
result: -0.12

variant.id: T157D
quantity: scaled log2 fold change
result: 0.102

variant.id: E133Q
quantity: scaled log2 fold change
result: -0.239

variant.id: I154L
quantity: scaled log2 fold change
result: 0.117

variant.id: C115P
quantity: scaled log2 fold change
result: 1.1

variant.id: S62W
quantity: scaled log2 fold change
result: -0.132

variant.id: I67D
quantity: scaled log2 fold change
result: 1.08

variant.id: K182S
quantity: scaled log2 fold change
result: 0.0077

variant.id: R147I
quantity: scaled log2 fold change
result: 0.215

variant.id: S35I
quantity: scaled log2 fold change
result: 0.293

variant.id: S113D
quantity: scaled log2 fold change
result: 0.394

variant.id: N162L
quantity: scaled log2 fold change
result: -0.0365

variant.id: D173A
quantity: scaled log2 fold change
result: 0.245

variant.id: V171E
quantity: scaled log2 fold change
result: 0.182

variant.id: G76E
quantity: scaled log2 fold change
result: -0.688

variant.id: S35H
quantity: scaled log2 fold change
result: -0.513

variant.id: S34Q
quantity: scaled log2 fold change
result: -0.0397

variant.id: S46P
quantity: scaled log2 fold change
result: 0.0875

variant.id: T157L
quantity: scaled log2 fold change
result: -0.0209

variant.id: F119N
quantity: scaled log2 fold change
result: 0.967

variant.id: A49L
quantity: scaled log2 fold change
result: -1.05

variant.id: P20L
quantity: scaled log2 fold change
result: 0.585

variant.id: L140F
quantity: scaled log2 fold change
result: -0.344

variant.id: A7I
quantity: scaled log2 fold change
result: 0.0041

variant.id: S113P
quantity: scaled log2 fold change
result: 1.03

variant.id: A57Q
quantity: scaled log2 fold change
result: 0.12

variant.id: A47N
quantity: scaled log2 fold change
result: 0.833

variant.id: K84L
quantity: scaled log2 fold change
result: 0.349

variant.id: R23T
quantity: scaled log2 fold change
result: -0.164

variant.id: S52R
quantity: scaled log2 fold change
result: 0.143

variant.id: T68K
quantity: scaled log2 fold change
result: -0.155

variant.id: D65S
quantity: scaled log2 fold change
result: -0.464

variant.id: L10I
quantity: scaled log2 fold change
result: -0.165

variant.id: A172S
quantity: scaled log2 fold change
result: 0.42

variant.id: F71G
quantity: scaled log2 fold change
result: 1.09

variant.id: Q153R
quantity: scaled log2 fold change
result: -0.0672

variant.id: C106G
quantity: scaled log2 fold change
result: 1.07

variant.id: T80A
quantity: scaled log2 fold change
result: -0.231

variant.id: N40L
quantity: scaled log2 fold change
result: -0.507

variant.id: I118M
quantity: scaled log2 fold change
result: 0.0783

variant.id: L79H
quantity: scaled log2 fold change
result: -0.594

variant.id: A2F
quantity: scaled log2 fold change
result: 0.0573

variant.id: R147D
quantity: scaled log2 fold change
result: 0.339

variant.id: A105E
quantity: scaled log2 fold change
result: 0.163

variant.id: E64F
quantity: scaled log2 fold change
result: 0.0956

variant.id: P168T
quantity: scaled log2 fold change
result: 0.449

variant.id: L38Y
quantity: scaled log2 fold change
result: -0.0523

variant.id: A111W
quantity: scaled log2 fold change
result: 0.0852

variant.id: H26N
quantity: scaled log2 fold change
result: 0.169

variant.id: S50T
quantity: scaled log2 fold change
result: 0.208

variant.id: A13P
quantity: scaled log2 fold change
result: 0.188

variant.id: E107V
quantity: scaled log2 fold change
result: 0.145

variant.id: R39H
quantity: scaled log2 fold change
result: 0.0443

variant.id: G36Q
quantity: scaled log2 fold change
result: -0.138

variant.id: E134G
quantity: scaled log2 fold change
result: 1.21

variant.id: D99H
quantity: scaled log2 fold change
result: -0.403

variant.id: K158Y
quantity: scaled log2 fold change
result: 0.0178

variant.id: S113I
quantity: scaled log2 fold change
result: 0.189

variant.id: R58Q
quantity: scaled log2 fold change
result: 0.0532

variant.id: V69H
quantity: scaled log2 fold change
result: 1.16

variant.id: T164Q
quantity: scaled log2 fold change
result: -0.171

variant.id: G104S
quantity: scaled log2 fold change
result: 0.931

variant.id: S88C
quantity: scaled log2 fold change
result: 0.057

variant.id: D75V
quantity: scaled log2 fold change
result: -0.11

variant.id: E64P
quantity: scaled log2 fold change
result: 0.158

variant.id: C155A
quantity: scaled log2 fold change
result: -0.331

variant.id: P168M
quantity: scaled log2 fold change
result: 0.157

variant.id: S159V
quantity: scaled log2 fold change
result: 0.225
